Biological target: T1, cynomolgus IL-36α, truncated (cynomolgus macaque (Macaca fascicularis), UniProt Q9UHA7 14-158 (human entry), limits assumed)
T1 construct: Untagged after removal of the His-SUMO tag; also called cynomolgus IL-36 alpha; cyIL-36alpha
T1 chain: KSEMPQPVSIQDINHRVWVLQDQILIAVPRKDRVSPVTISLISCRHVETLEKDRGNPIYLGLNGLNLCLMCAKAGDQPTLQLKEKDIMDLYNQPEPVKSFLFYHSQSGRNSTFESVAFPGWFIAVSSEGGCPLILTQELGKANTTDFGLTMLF
Test: SPR, Biacore, 1:1 Langmuir fit; heads of c3 and c4 printed swapped
We begin with a simple list: items and their reported kon.
Write the number in M⁻¹ s⁻¹ without appending the unit.

{"columns": ["binder", "kon / M⁻¹ s⁻¹"],
 "data": [
  ["144L249B LV9 HV10b (antibody, V domains shown, Humanized) VH: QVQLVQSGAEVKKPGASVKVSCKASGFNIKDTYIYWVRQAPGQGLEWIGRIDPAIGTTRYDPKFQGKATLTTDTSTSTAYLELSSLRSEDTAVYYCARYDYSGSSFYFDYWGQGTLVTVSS VL: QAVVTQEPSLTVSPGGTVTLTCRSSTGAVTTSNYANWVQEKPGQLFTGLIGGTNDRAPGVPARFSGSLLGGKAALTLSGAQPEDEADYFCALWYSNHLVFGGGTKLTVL", "1.34e+06"]
]}

Continue with the binder presented below.
Q: Param item = 144D464A LV9are HV10b (antibody, V domains shown, Humanized) VH: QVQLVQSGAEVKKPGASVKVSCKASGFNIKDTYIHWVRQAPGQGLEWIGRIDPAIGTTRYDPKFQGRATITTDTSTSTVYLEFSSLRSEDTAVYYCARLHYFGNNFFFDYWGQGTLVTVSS VL: QAVVTQEPSLTVSPGGTVTLTCRSSSGAVTTSNYANWVQEKPGQLFAGLIGGTNDRAPGVPARFSGSLLGGKAALTLSGAQPEDEADYFCALWFSNHWVFGGGTKLTVL ; retrieve measured kon.
Result: 354000
